B1: Cold shock protein CspB, P41016 (parent)
chain: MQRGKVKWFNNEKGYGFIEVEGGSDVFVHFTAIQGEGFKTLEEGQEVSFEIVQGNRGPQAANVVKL

Variants of: B1
condition: Bacillus caldolyticus; pH 7; 75 °C; Thermal; CD; Na cacodylate/HCl 0.1 M; NaCl 2 M; reversible: Yes; structure 1C9O; whole UniProt chain shown
quantity_name: ddG of mutation (higher = less stable)

Sample records with ddG of mutation (higher = less stable):
[[record]]
variant_designation = "E21K"
quantity_name = "ddG of mutation (higher = less stable)"
value = "-0.17 kcal/mol"

[[record]]
variant_designation = "N55K"
quantity_name = "ddG of mutation (higher = less stable)"
value = "-0.19 kcal/mol"


Then there is this variant:
Give the reported value of ddG of mutation (higher = less stable) for this record: E50K
-0.26 kcal/mol
